pIC50: −log10 of the molar value.
Listing of pIC50 toward Coagulation factor X (Homo sapiens), each taken from a published source.
Property label: pIC50

These recorded examples may help you get a feel for the data.
INSERT INTO results (compound, property_label, value_reported) VALUES
  ('COc1ccc(-n2nc(-c3nc[nH]n3)c3c2C(=O)N(c2ccc(N4CCCCC4=O)cc2)CC3)cc1', 'pIC50', 6.82),
  ('CCOc1ccccc1-c1ccc(C(=O)NC(/C=C/c2ccccc2)C(Cc2cccc(C(=N)N)c2)C(=O)OC)cc1 (stereo not drawn)', 'pIC50', 7.22),
  ('C/C(=C(\F)C(=O)Nc1ccc(-c2ccccc2S(N)(=O)=O)cc1Cl)c1cccc(C(=N)NN)c1', 'pIC50', 7.39);

I. Cc1cc(C(=O)Nc2ccc(N3CCNCC3=O)cc2F)n(-c2cc3ccccc3cc2S(C)(=O)=O)n1
II. CC(C)CNC(=O)c1ccc(-c2ccc(C#CCCO)cc2C(=O)Nc2ccc(C(=N)N)cc2)c(C(=O)O)c1
III. CN(C)C(=N)c1ccc(NC(=O)c2cc(C(F)(F)F)nn2-c2ccc3cc(Cl)ccc3c2)c(F)c1
IV. CC(c1cccc(C(=N)N)c1)C1CC(=O)N(c2ccc(-c3ccccc3S(N)(=O)=O)cc2)C1=O (stereo not drawn)
V. Cc1cc2cc(NC(/C=C(\O)c3nccs3)=N/[C@H]3CCCCN(CC(=O)N4CCCC4)C3=O)ccc2o1
Ask: Rank ascending by pIC50. Lab note: record answer as labels in requested order.
Result: II, IV, I, V, III
(II: 4.23, IV: 6.92, I: 7.39, V: 8.00, III: 9.00)

====

Listing of IC50 toward Coagulation factor X (Homo sapiens, UniProt P00742), each taken from a published source.
Property label: IC50 (nM)

These recorded examples may help you get a feel for the data.
INSERT INTO measurements (compound, property_label, unit_string, value_reported) VALUES
  ('CN1CCN=C1c1ccc(C(=O)N2CCN(S(=O)(=O)c3cc4cc(Cl)ccc4[nH]3)CC2CC(=O)N2CCCC2)cc1 (stereo not drawn)', 'IC50', 'nM', 7),
  ('CN(C(=O)CCCS(=O)(=O)c1ccc2cc(Cl)ccc2c1)C1CCN(c2ccncc2)CC1', 'IC50', 'nM', 140);

P. CN(C(=O)[C@@H]1Cc2ccccc2CN1C(=O)OCc1ccccc1)c1ccc(N2CCOCC2=O)cc1
Q. N=C(N)c1ccc(CNC(=O)CN2C(=O)[C@H](NS(=O)(=O)Cc3ccccc3)CSc3cc(N)ccc32)cc1
R. COc1ccc(NC(=O)c2cccc(O)c2NC(=O)c2ccc(N3CCCN(C)CC3)cc2)cc1.Cl
S. N=C(N)NCCC[C@H](NC(=O)CN1CCN(S(=O)(=O)Cc2ccccc2)[C@@H](CCCNC(=N)N)C1=O)C(=O)c1nccs1
T. COc1ccc(NC(=N[C@H]2CCCCN(CC(=O)N3CCCC3)C2=O)NC(=O)c2ccc(Cl)cc2)cc1
Ask: Rank ascending by IC50. Lab note: record answer as labels in requested order.
Result: S, R, T, Q, P
(S: 3 nM, R: 150 nM, T: 294 nM, Q: 1630 nM, P: 12800 nM)

====

Listing of pIC50 toward Coagulation factor X (Homo sapiens), each taken from a published source.
pIC50: −log10 of the molar value.
Property label: pIC50

These recorded examples may help you get a feel for the data.
INSERT INTO measurements (compound, property_label, value_reported) VALUES
  ('CC(C)[C@H](NC(=O)[C@H](CCCNC(N)=O)NC(=O)N[C@H](C)c1ccc(Br)cc1)C(=O)N[C@@H](CCCNC(=N)N)C(=O)c1nccs1', 'pIC50', 5.72),
  ('CN(C)C(=N)c1ccc(C(=O)N2CCN(S(=O)(=O)c3cc4cc(Cl)ccc4[nH]3)CC2)cc1', 'pIC50', 7.70),
  ('CC(CCc1ccccc1)Nc1c(F)c(Oc2cccc(C(=N)N)c2)nc(Oc2ccc(-c3ccccc3)cc2C(=O)O)c1F (stereo not drawn)', 'pIC50', 4.77),
  ('Cc1cc(C(=O)Nc2ccc(-c3ccccc3S(N)(=O)=O)cc2)n(-c2cc3ccccc3cc2C(=N)N(C)C)n1', 'pIC50', 5.78),
  ('Cn1c(=O)c(Cc2ccc(C(=N)N)cc2)nc2cc(C3(C(=O)N4CCCC4CO)CC3)ccc21 (stereo not drawn)', 'pIC50', 5.85);

I. NC(N)=NCCC[C@H](NC(=O)[C@H](Cc1ccc([N+](=O)[O-])cc1)NC(=O)[C@@H](Cc1ccccc1)NS(=O)(=O)Cc1ccccc1)C(=O)c1nccs1
II. COC(=O)C(Cc1cccc(C(=N)N)c1)C(/C=C/c1ccccc1)NC(=O)c1ccccc1C (stereo not drawn)
Ask: Out of I and II , name the one with the higher pIC50. State your choice using its label.
Result: II
(II: 5.92, I: 5.66)
